Source listed as PubChem BioAssay AID1919014.

system: NCI-H1341 complex spheroids, percent test/control; assay: Anticancer human tumor NCI-H1341 cell line growth inhibition [AhR]; conditions: second compound 1 µM; first compound 3.16 µM; active compounds read low;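 also: spheroids exposed to agents for seven days before readout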
Reported viability, T/C by item:
RECORDED_ENDPOINT: viability, T/C (%)

1. Nc1ccccc1NC(=O)c1ccc(CNC(=O)OCc2cccnc2)cc1 + CC(CO)NC(=O)c1cc(-c2ccc(Cl)cc2)nn(-c2cnn(C)c2)c1=O = 8.93
2. O=C(c1cc(Cc2n[nH]c(=O)c3ccccc23)ccc1F)N1CCN(C(=O)C2CC2)CC1 + Cc1cncc(-c2nc(NCCc3c[nH]c4ccccc34)c3ncn(C(C)C)c3n2)c1 = 71
3. CC(C)c1c(-c2ccccc2)nc2c(C#N)c[nH]n2c1=O + Cc1ccccc1N=Nc1ccc(NC(=O)c2ccnn2C)c(C)c1 = 83.8
4. Nc1ccn(C2OC(CO)C(O)C2(F)F)c(=O)n1 (centres undefined) + CC(CO)NC(=O)c1cc(-c2ccc(Cl)cc2)nn(-c2cnn(C)c2)c1=O = 26.1

---

tested on: NCI-H1341 complex spheroids, percent test/control; assay: Anticancer human tumor NCI-H1341 cell line growth inhibition [AhR]; settings: second compound 0.316 µM; first compound 10 µM; active compounds read low;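 also: spheroids exposed to agents for seven days before readout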
Assign labels as follows, please: True for viability, T/C below 20%; False for viability, T/C equal to or exceeding 20%.

1) Nc1ccn(C2OC(CO)C(O)C2(F)F)c(=O)n1 (configuration not stated) + Cc1ccccc1N=Nc1ccc(NC(=O)c2ccnn2C)c(C)c1 = False
2) CC1COCCN1c1cc(C2(S(C)(=N)=O)CC2)nc(-c2ccnc3[nH]ccc23)n1 (configuration not stated) + Cc1cncc(-c2nc(NCCc3c[nH]c4ccccc34)c3ncn(C(C)C)c3n2)c1 = False
3) COc1cc(C2c3cc4c(cc3C(OC3OC5COC(C)OC5C(O)C3O)C3COC(=O)C23)OCO4)cc(OC)c1O (configuration not stated) + Cc1ccccc1N=Nc1ccc(NC(=O)c2ccnn2C)c(C)c1 = False
4) Nc1ccccc1NC(=O)c1ccc(CNC(=O)OCc2cccnc2)cc1 + Cc1ccccc1N=Nc1ccc(NC(=O)c2ccnn2C)c(C)c1 = True
5) COc1ccc([C@@H](O)c2cc(-c3ncnc4cc(N5CCOCC5)ccc34)c(F)cc2Cl)nn1 + Cc1cncc(-c2nc(NCCc3c[nH]c4ccccc34)c3ncn(C(C)C)c3n2)c1 = True
6) COc1cc(C2c3cc4c(cc3C(OC3OC5COC(C)OC5C(O)C3O)C3COC(=O)C23)OCO4)cc(OC)c1O (configuration not stated) + CC(CO)NC(=O)c1cc(-c2ccc(Cl)cc2)nn(-c2cnn(C)c2)c1=O = False

---

system: NCI-H1341 complex spheroids, percent test/control; assay: Anticancer human tumor NCI-H1341 cell line growth inhibition [AhR]; details: second compound 0.316 µM; first compound 10 µM; active = viability on the fitted dose curve at most 10% of control; inactive = the rest;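 also: spheroids exposed to agents for seven days before readout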
Outcomes: TRUE for active, FALSE for inactive

1) Nc1ccccc1NC(=O)c1ccc(CNC(=O)OCc2cccnc2)cc1 + CC(CO)NC(=O)c1cc(-c2ccc(Cl)cc2)nn(-c2cnn(C)c2)c1=O = TRUE
2) COc1cc(Nc2ncc3c(n2)-c2ccc(Cl)cc2C(c2c(F)cccc2OC)=NC3)ccc1C(=O)O + Cc1cncc(-c2nc(NCCc3c[nH]c4ccccc34)c3ncn(C(C)C)c3n2)c1 = FALSE
3) NS(=O)(=O)OCC1CC(n2ccc3c(NC4CCc5ccccc54)ncnc32)CC1O (stereo not drawn) + Cc1cncc(-c2nc(NCCc3c[nH]c4ccccc34)c3ncn(C(C)C)c3n2)c1 = FALSE

---

tested on: NCI-H1341 complex spheroids, percent test/control; assay: Anticancer human tumor NCI-H1341 cell line growth inhibition [AhR]; conditions: second compound 0.316 µM; first compound 0.000949 µM; active compounds read low;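 also: spheroids exposed to agents for seven days before readout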
RECORDED_ENDPOINT: viability, T/C (%)

1) CC(C)CC(NC(=O)C(Cc1ccccc1)NC(=O)c1cnccn1)B(O)O (stereo not drawn) + Cc1ccccc1N=Nc1ccc(NC(=O)c2ccnn2C)c(C)c1 = 92.6
2) CCc1c2c(nc3ccc(O)cc13)-c1cc3c(c(=O)n1C2)COC(=O)[C@]3(O)CC + Cc1ccccc1N=Nc1ccc(NC(=O)c2ccnn2C)c(C)c1 = 92.9
3) CC(C)CC(NC(=O)C(Cc1ccccc1)NC(=O)c1cnccn1)B(O)O (stereo not drawn) + Cc1cncc(-c2nc(NCCc3c[nH]c4ccccc34)c3ncn(C(C)C)c3n2)c1 = 80.5

---

Reported viability, T/C by item:
test system: NCI-H1341 complex spheroids, percent test/control; test: Anticancer human tumor NCI-H1341 cell line growth inhibition [AhR]; details: second compound 0.1 µM; first compound 0.000316 µM; active compounds read low;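 also: spheroids exposed to agents for seven days before readout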
RECORDED_ENDPOINT: viability, T/C (%)

1. Cn1ncnc1C1c2n[nH]c(=O)c3cc(F)cc(c23)NC1c1ccc(F)cc1 (stereo not drawn) + Cc1cncc(-c2nc(NCCc3c[nH]c4ccccc34)c3ncn(C(C)C)c3n2)c1 = 99.9
2. Cn1ncnc1C1c2n[nH]c(=O)c3cc(F)cc(c23)NC1c1ccc(F)cc1 (stereo not drawn) + Cc1ccccc1N=Nc1ccc(NC(=O)c2ccnn2C)c(C)c1 = 112
3. CC[C@@]1(O)C(=O)OCc2c1cc1n(c2=O)Cc2cc3c(CN(C)C)c(O)ccc3nc2-1 + CC(CO)NC(=O)c1cc(-c2ccc(Cl)cc2)nn(-c2cnn(C)c2)c1=O = 81.7

---

system: NCI-H1341 complex spheroids, percent test/control; assay: Anticancer human tumor NCI-H1341 cell line growth inhibition [AhR]; details: second compound 3.16 µM; first compound 0.0949 µM; active compounds read low;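 also: spheroids exposed to agents for seven days before readout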
Assign labels as follows, please: 1 for viability, T/C below 30%; -1 for viability, T/C equal to or exceeding 30%.

1. CCN(c1cc(-c2ccc(CN3CCOCC3)cc2)cc(C(=O)NCc2c(C)cc(C)[nH]c2=O)c1C)C1CCOCC1 + Cc1ccccc1N=Nc1ccc(NC(=O)c2ccnn2C)c(C)c1 = -1
2. CC(C)CC(NC(=O)C(Cc1ccccc1)NC(=O)c1cnccn1)B(O)O (stereo not given) + Cc1ccccc1N=Nc1ccc(NC(=O)c2ccnn2C)c(C)c1 = 1
3. Nc1ncn(C2CC(O)C(CO)S2)c(=O)n1 (stereo not given) + Cc1ccccc1N=Nc1ccc(NC(=O)c2ccnn2C)c(C)c1 = -1
4. CCN(c1cc(-c2ccc(CN3CCOCC3)cc2)cc(C(=O)NCc2c(C)cc(C)[nH]c2=O)c1C)C1CCOCC1 + CC(CO)NC(=O)c1cc(-c2ccc(Cl)cc2)nn(-c2cnn(C)c2)c1=O = -1
5. CC(C)CC(NC(=O)C(Cc1ccccc1)NC(=O)c1cnccn1)B(O)O (stereo not given) + CC(CO)NC(=O)c1cc(-c2ccc(Cl)cc2)nn(-c2cnn(C)c2)c1=O = 1
6. Nc1ncn(C2CC(O)C(CO)S2)c(=O)n1 (stereo not given) + Cc1cncc(-c2nc(NCCc3c[nH]c4ccccc34)c3ncn(C(C)C)c3n2)c1 = -1
7. Nc1ncn(C2CC(O)C(CO)S2)c(=O)n1 (stereo not given) + CC(CO)NC(=O)c1cc(-c2ccc(Cl)cc2)nn(-c2cnn(C)c2)c1=O = -1
8. CC(C)CC(NC(=O)C(Cc1ccccc1)NC(=O)c1cnccn1)B(O)O (stereo not given) + Cc1cncc(-c2nc(NCCc3c[nH]c4ccccc34)c3ncn(C(C)C)c3n2)c1 = 1
9. O=C(C=Cn1cnc(-c2cc(C(F)(F)F)cc(C(F)(F)F)c2)n1)NNc1cnccn1 + CC(CO)NC(=O)c1cc(-c2ccc(Cl)cc2)nn(-c2cnn(C)c2)c1=O = 1
10. CCc1c2c(nc3ccc(O)cc13)-c1cc3c(c(=O)n1C2)COC(=O)[C@]3(O)CC + CC(CO)NC(=O)c1cc(-c2ccc(Cl)cc2)nn(-c2cnn(C)c2)c1=O = 1
11. CCN(c1cc(-c2ccc(CN3CCOCC3)cc2)cc(C(=O)NCc2c(C)cc(C)[nH]c2=O)c1C)C1CCOCC1 + Cc1cncc(-c2nc(NCCc3c[nH]c4ccccc34)c3ncn(C(C)C)c3n2)c1 = -1
12. CCc1c2c(nc3ccc(O)cc13)-c1cc3c(c(=O)n1C2)COC(=O)[C@]3(O)CC + Cc1cncc(-c2nc(NCCc3c[nH]c4ccccc34)c3ncn(C(C)C)c3n2)c1 = 1

---

tested on: NCI-H1341 complex spheroids, percent test/control; assay: Anticancer human tumor NCI-H1341 cell line growth inhibition [AhR]; settings: second compound 0.1 µM; first compound 3.16 µM; active = viability on the fitted dose curve at most 10% of control; inactive = the rest;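 also: spheroids exposed to agents for seven days before readout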
Outcomes: t = active, f = inactive

1. O=C(C=Cc1cccc(S(=O)(=O)Nc2ccccc2)c1)NO + CC(CO)NC(=O)c1cc(-c2ccc(Cl)cc2)nn(-c2cnn(C)c2)c1=O = t
2. Nc1ccccc1NC(=O)c1ccc(CNC(=O)OCc2cccnc2)cc1 + Cc1cncc(-c2nc(NCCc3c[nH]c4ccccc34)c3ncn(C(C)C)c3n2)c1 = t
3. O=C(c1cc(Cc2n[nH]c(=O)c3ccccc23)ccc1F)N1CCN(C(=O)C2CC2)CC1 + CC(CO)NC(=O)c1cc(-c2ccc(Cl)cc2)nn(-c2cnn(C)c2)c1=O = f
